- Tested on: BT474 breast tumor cell line
- test details: BT474 assay (Alamar blue)
- Type: cell-based
- applied conditions: Homo sapiens, BT-474, 72 h
Square brackets hold non-standard residues; d marks the D form. Peptide text beside a SMILES is read from it. NMeTrp(1-(4-Br-benzyl)) = CN[C@@H](Cc1cn(Cc2ccc(Br)cc2)c2ccccc12)C(=O)O; Butanoyl(2R-oxy,4-CN) = N#CCC[C@@H](O)C(=O)O; tBuAla = CC(C)(C)C[C@H](N)C(=O)O; NMeL = CN[C@@H](CC(C)C)C(=O)O; NMeA = CN[C@@H](C)C(=O)O
measured attribute: EC50 (µM)
Form entry: value (µM) — number only.

compound Cc1cccc(Cn2cc(C[C@H]3C(=O)N[C@@H](CC(C)C)C(=O)N(C)[C@@H](C)C(=O)O[C@H](CCC#N)C(=O)N[C@@H](CC(C)C)C(=O)N(C)[C@@H](CC(C)C)C(=O)N[C@@H](CC(C)C)C(=O)N3C)c3ccccc32)n1 [C-33] (HELM PEPTIDE1{L.[meA].[N#CCC[C@@H](O[*:1])C(=O)[*:2]].L.[meL].L.[Cc1cccc(Cn2cc(C[C@@H](C(=O)[*:2])N(C)[*:1])c3ccccc32)n1]}$PEPTIDE1,PEPTIDE1,1:R1-7:R2$$$V2.0) , EC50 observed: 4.19

Memo: CC(C)C[C@@H]1NC(=O)[C@H](Cc2cn(Cc3ccc(Br)cc3)c3ccccc23)N(C)C(=O)[C@H](CC(C)C)NC(=O)[C@H](CC(C)C)N(C)C(=O)[C@H](CC(C)(C)C)NC(=O)[C@@H](CCC#N)OC(=O)[C@H](C)N(C)C1=O [C-39] (cyclo(L[NMeA][Butanoyl(2R-oxy,4-CN)][tBuAla][NMeL]L[NMeTrp(1-(4-Br-benzyl))])) , reported EC50: 3.57

The reported EC50 of the compound COc1ccc(Cn2cc(C[C@H]3C(=O)N[C@@H](CC(C)C)C(=O)N(C)[C@@H](C)C(=O)O[C@H](CCC#N)C(=O)N[C@@H](CC(C)C)C(=O)N(C)[C@@H](CC(C)C)C(=O)N[C@@H](CC(C)C)C(=O)N3C)c3ccccc32)cc1 [C-31] (HELM PEPTIDE1{L.[meA].[N#CCC[C@@H](O[*:1])C(=O)[*:2]].L.[meL].L.[COc1ccc(Cn2cc(C[C@@H](C(=O)[*:2])N(C)[*:1])c3ccccc32)cc1]}$PEPTIDE1,PEPTIDE1,1:R1-7:R2$$$V2.0) was 5.89

---

- Test system: HER3ss-Gluc
- test details: HER3ss assay
- Assay type: cell-based
- applied conditions: HEK-293T T-rex cells, transient transfection, doxycycline, 24 h; read-out: HER3 ss IC50
Square brackets hold non-standard residues; d marks the D form. Peptide text beside a SMILES is read from it. NMeTrp(1-(4-Br-benzyl)) = CN[C@@H](Cc1cn(Cc2ccc(Br)cc2)c2ccccc12)C(=O)O; Butanoyl(2R-oxy,4-CN) = N#CCC[C@@H](O)C(=O)O; Ala(cPr) = N[C@@H](CC1CC1)C(=O)O; NMeL = CN[C@@H](CC(C)C)C(=O)O; NMeA = CN[C@@H](C)C(=O)O
measured attribute: pIC50
Schema: pIC50 number; meaning minus log10 of the concentration expressed in molar units.

Recorded pIC50 (molecule CC(C)C[C@@H]1NC(=O)[C@H](Cc2csc3ccccc23)N(C)C(=O)[C@H](CC(C)C)NC(=O)[C@H](CC(C)C)N(C)C(=O)[C@H](CC(C)C)NC(=O)[C@@H](CCC#N)OC(=O)[C@H](C)N(C)C1=O [C-29] (HELM PEPTIDE1{L.[meA].[N#CCC[C@@H](O[*:1])C(=O)[*:2]].L.[meL].L.[CN([C@@H](Cc1csc2ccccc12)C(=O)[*:2])[*:1]]}$PEPTIDE1,PEPTIDE1,1:R1-7:R2$$$V2.0) ): 7.66

The measured pIC50 associated with Cc1cc(Cn2cc(C[C@H]3C(=O)N[C@@H](CC(C)C)C(=O)N(C)[C@@H](C)C(=O)O[C@H](CCC#N)C(=O)N[C@@H](CC(C)C)C(=O)N(C)[C@@H](CC(C)C)C(=O)N[C@@H](CC(C)C)C(=O)N3C)c3ccccc32)no1 [C-15] (HELM PEPTIDE1{L.[meA].[N#CCC[C@@H](O[*:1])C(=O)[*:2]].L.[meL].L.[Cc1cc(Cn2cc(C[C@@H](C(=O)[*:2])N(C)[*:1])c3ccccc32)no1]}$PEPTIDE1,PEPTIDE1,1:R1-7:R2$$$V2.0) reads 6.55

For reference, reported pIC50 for CC(C)C[C@@H]1NC(=O)[C@H](Cc2cn(Cc3ccc(Br)cc3)c3ccccc23)N(C)C(=O)[C@H](CC(C)C)NC(=O)[C@H](CC(C)C)N(C)C(=O)[C@H](CC2CC2)NC(=O)[C@@H](CCC#N)OC(=O)[C@H](C)N(C)C1=O [C-38] (cyclo([Ala(cPr)][NMeL]L[NMeTrp(1-(4-Br-benzyl))]L[NMeA][Butanoyl(2R-oxy,4-CN)])) stands at 6.50

---

- Tested on: BT474 breast tumor cell line
- test details: BT474 assay (Alamar blue)
- Assay type: cell-based
- applied conditions: Homo sapiens, BT-474, 72 h
Square brackets hold non-standard residues; d marks the D form. Peptide text beside a SMILES is read from it. NMeTrp(1-(4-Br-benzyl)) = CN[C@@H](Cc1cn(Cc2ccc(Br)cc2)c2ccccc12)C(=O)O; Butanoyl(2R-oxy,4-CN) = N#CCC[C@@H](O)C(=O)O; Nva(5,5,5-F3) = N[C@@H](CCC(F)(F)F)C(=O)O; Abu(4,4,4-F3) = N[C@@H](CC(F)(F)F)C(=O)O; NMeBta = CN[C@@H](Cc1csc2ccccc12)C(=O)O; NMeL = CN[C@@H](CC(C)C)C(=O)O; NMeA = CN[C@@H](C)C(=O)O
Give EC50 for every item shown.
Answer with a number only, understood to be in nM.

Note to self: EC50 recorded for COc1cccc(Cn2cc(C[C@H]3C(=O)N[C@@H](CC(C)C)C(=O)N(C)[C@@H](C)C(=O)O[C@H](CCC#N)C(=O)N[C@@H](CC(C)C)C(=O)N(C)[C@@H](CC(C)C)C(=O)N[C@@H](CC(C)C)C(=O)N3C)c3ccccc32)c1 [C-13] (HELM PEPTIDE1{L.[meA].[N#CCC[C@@H](O[*:1])C(=O)[*:2]].L.[meL].L.[COc1cccc(Cn2cc(C[C@@H](C(=O)[*:2])N(C)[*:1])c3ccccc32)c1]}$PEPTIDE1,PEPTIDE1,1:R1-7:R2$$$V2.0) was 1360

Value of measured EC50 for the entry CC(C)C[C@@H]1NC(=O)[C@H](CC(C)C)N(C)C(=O)[C@H](CC(F)(F)F)NC(=O)[C@@H](CCC#N)OC(=O)[C@H](C)N(C)C(=O)[C@H](CCC(F)(F)F)NC(=O)[C@H](Cc2cn(Cc3ccc(Br)cc3)c3ccccc23)N(C)C1=O [C-48] (cyclo(L[NMeTrp(1-(4-Br-benzyl))][Nva(5,5,5-F3)][NMeA][Butanoyl(2R-oxy,4-CN)][Abu(4,4,4-F3)][NMeL])) : 1240

Reported EC50 ( CCCC[C@@H]1NC(=O)[C@@H](CCC#N)OC(=O)[C@H](C)N(C)C(=O)[C@H](CC(C)C)NC(=O)[C@H](Cc2cn(Cc3ccc(Br)cc3)c3ccccc23)N(C)C(=O)[C@H](CC(C)C)NC(=O)[C@H](CC(C)C)N(C)C1=O [C-40] (HELM PEPTIDE1{L.[meA].[N#CCC[C@@H](O[*:1])C(=O)[*:2]].[Nle].[meL].L.[CN([C@@H](Cc1cn(Cc2ccc(Br)cc2)c2ccccc12)C(=O)[*:2])[*:1]]}$PEPTIDE1,PEPTIDE1,1:R1-7:R2$$$V2.0) ) = 2150

// EC50 value for CC(C)C[C@@H]1NC(=O)[C@H](Cc2cn(Cc3ccc(C(F)(F)F)cc3)c3ccccc23)N(C)C(=O)[C@H](CC(C)C)NC(=O)[C@H](CC(C)C)N(C)C(=O)[C@H](CC(C)C)NC(=O)[C@@H](CCC#N)OC(=O)[C@H](C)N(C)C1=O [C-42] (HELM PEPTIDE1{L.[meA].[N#CCC[C@@H](O[*:1])C(=O)[*:2]].L.[meL].L.[CN([C@@H](Cc1cn(Cc2ccc(C(F)(F)F)cc2)c2ccccc12)C(=O)[*:2])[*:1]]}$PEPTIDE1,PEPTIDE1,1:R1-7:R2$$$V2.0) : 3300

Recorded result, COc1cc(Cn2cc(C[C@H]3C(=O)N[C@@H](CC(C)C)C(=O)N(C)[C@@H](C)C(=O)O[C@H](CCC#N)C(=O)N[C@@H](CC(C)C)C(=O)N(C)[C@@H](CC(C)C)C(=O)N[C@@H](CC(C)C)C(=O)N3C)c3ccccc32)ccc1F [C-27] (HELM PEPTIDE1{L.[meA].[N#CCC[C@@H](O[*:1])C(=O)[*:2]].L.[meL].L.[COc1cc(Cn2cc(C[C@@H](C(=O)[*:2])N(C)[*:1])c3ccccc32)ccc1F]}$PEPTIDE1,PEPTIDE1,1:R1-7:R2$$$V2.0) , EC50: 2140

Given item CC(C)C[C@@H]1NC(=O)[C@@H](CCC#N)OC(=O)[C@H](C)N(C)C(=O)[C@H](CCC(F)(F)F)NC(=O)[C@H](Cc2csc3ccccc23)N(C)C(=O)[C@H](CC(C)C)NC(=O)[C@H](CC(C)C)N(C)C1=O [C-50] (cyclo(L[NMeBta][Nva(5,5,5-F3)][NMeA][Butanoyl(2R-oxy,4-CN)]L[NMeL])) , the value recorded as its EC50 is 2450

Entry source: patent US11339193B2
